- target of assay: succinate dehydrogenase/complex II (SDH) (Rattus norvegicus, UniProt P21913+Q641Z9+Q6PCT8+Q920L2)
- Construct: freshly isolated muscle mitochondria were assayed; from tissue; host or cells: rat skeletal muscle mitochondria (Wistar, Harlan Laboratories)
- Sequence (Q920L2 35-656): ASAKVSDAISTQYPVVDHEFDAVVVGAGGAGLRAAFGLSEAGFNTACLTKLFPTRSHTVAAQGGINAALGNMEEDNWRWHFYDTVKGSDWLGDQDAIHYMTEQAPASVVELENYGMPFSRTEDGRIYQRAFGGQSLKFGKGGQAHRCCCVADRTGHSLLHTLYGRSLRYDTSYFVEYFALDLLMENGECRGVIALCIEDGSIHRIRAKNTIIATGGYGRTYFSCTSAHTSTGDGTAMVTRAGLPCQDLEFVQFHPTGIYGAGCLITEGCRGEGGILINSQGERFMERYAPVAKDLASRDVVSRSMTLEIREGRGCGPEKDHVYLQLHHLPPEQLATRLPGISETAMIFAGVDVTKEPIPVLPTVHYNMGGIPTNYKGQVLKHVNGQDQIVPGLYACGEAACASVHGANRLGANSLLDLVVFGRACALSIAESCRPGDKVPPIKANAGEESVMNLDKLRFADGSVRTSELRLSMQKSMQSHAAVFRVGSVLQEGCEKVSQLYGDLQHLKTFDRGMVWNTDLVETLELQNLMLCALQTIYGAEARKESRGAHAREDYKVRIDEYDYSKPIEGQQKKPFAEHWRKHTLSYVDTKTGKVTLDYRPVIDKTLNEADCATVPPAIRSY
- Sequence (P21913 31-282): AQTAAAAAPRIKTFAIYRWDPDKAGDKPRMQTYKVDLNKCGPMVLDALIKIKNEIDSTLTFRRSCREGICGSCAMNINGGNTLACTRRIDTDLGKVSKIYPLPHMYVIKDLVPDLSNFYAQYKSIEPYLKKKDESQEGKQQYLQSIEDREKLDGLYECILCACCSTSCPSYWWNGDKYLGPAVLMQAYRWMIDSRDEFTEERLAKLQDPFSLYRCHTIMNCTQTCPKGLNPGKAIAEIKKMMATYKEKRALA
- Sequence (Q641Z9 30-169 limits assumed): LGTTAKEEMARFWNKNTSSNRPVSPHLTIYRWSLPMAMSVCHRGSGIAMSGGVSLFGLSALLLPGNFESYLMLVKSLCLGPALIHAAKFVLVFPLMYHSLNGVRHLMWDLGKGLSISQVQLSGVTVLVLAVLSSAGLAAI
- Sequence (Q6PCT8 57-159): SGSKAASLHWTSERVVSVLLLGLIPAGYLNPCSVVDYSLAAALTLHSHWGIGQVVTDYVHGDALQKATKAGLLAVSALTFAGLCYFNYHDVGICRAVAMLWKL
- assay: High-throughput screen: ROS production from succinate dehydrogenase/complex II (SDH)
- Type: biochemical
- condition description: Table 8; percent change in ROS from DMSO controls
measure: inhibition at 2.5 µM (%)
Kindly answer with a numeric value in %, unit omitted.

Which value of inhibition at 2.5 µM has been reported for c1ccc(C2CCC(Nc3ccc4c(c3)OCO4)CC2)cc1 (stereo not shown) in the records? 0

Which value of inhibition at 2.5 µM has been reported for O=C(Nc1nn[nH]n1)C1CCCCC1 in the records? -3

Which value of inhibition at 2.5 µM has been reported for Clc1ccc(C(NC2CCN(Cc3ccccc3)CC2)c2ccccc2)cc1 (stereo not shown) in the records? 5

Which value of inhibition at 2.5 µM has been reported for CCC1CCCCN1C/C=C/c1ccc(N(C)C)cc1 (stereo not shown) in the records? -4

Which value of inhibition at 2.5 µM has been reported for CN(C)c1ccc(C(=C2CN3CCC2CC3)c2ccc(N(C)C)cc2)cc1 in the records? 1

Which value of inhibition at 2.5 µM has been reported for Clc1ccc(N2CCN(CC(c3ccccc3)c3ccccc3)CC2)cc1 in the records? 14

Which value of inhibition at 2.5 µM has been reported for COc1ccc(NC(=S)NC(=O)c2ccco2)cc1 in the records? 22

* * *

- Tested on: ubiquinone binding site of complex I (IQ)
- assay: High-throughput screen: ROS production from ubiquinone binding site of complex I (IQ), isolated skeletal muscle mitochondria
- Assay type: biochemical, rat
- condition description: Table 7; percent change in ROS from DMSO controls
Class key for IQ values: LOW (below -5), MEDIUM (-5 to below 0), HIGH (0 or more)

Any idea which band COc1cccc(/C=C/C(=O)c2c(O)cc(C)oc2=O)c1O [Compound 17] is in? LOW

Any idea which band O=C(O)CCC(=O)Nc1ccc(-c2nc3ccccc3o2)cc1 [Compound 50] is in? HIGH

Any idea which band CCCCN(Cc1ccccc1)Cc1cc(Cl)cc(Cl)c1O [Compound 38] is in? MEDIUM

Any idea which band C=C(C)C(=O)Nc1ccc(-c2nc3ccccc3[nH]2)cc1 [Compound 56] is in? MEDIUM

Any idea which band CC1=CC(C)(C)N(Cc2ccc([N+](=O)[O-])cc2)c2ccccc21 [Compound 37] is in? HIGH

Any idea which band O=C(O)/C=C/C(=O)Nc1ccc(/C=C/c2ccccc2)cc1 [Compound 49] is in? HIGH

Any idea which band O=C(Nc1ccccc1C(=O)O)c1ccccc1 [Compound 18] is in? MEDIUM

Any idea which band O=C(O)CCC(=O)Nc1ccc(Cl)cc1 [Compound 58] is in? LOW

Any idea which band O=C(O)CCC(=O)Nc1ccc(-c2nc3cc(C(=O)c4ccccc4)ccc3[nH]2)cc1 [Compound 69] is in? LOW

Any idea which band O=C(O)C1CCCCC1C(=O)NC1CCCCCCC1 (stereo not drawn) [Compound 30] is in? MEDIUM

Any idea which band COc1cccc(CCNC2C3CC4CC(C3)CC2C4)c1 (stereo not drawn) [Compound 26] is in? MEDIUM

Any idea which band CC(=O)Nc1ccc(-c2nc3ccccc3[nH]2)cc1 [Compound 59] is in? LOW

Any idea which band COc1ccccc1/C=C/c1nc(O)nc(O)c1[N+](=O)[O-] [Compound 16] is in? LOW

* * *

- target of assay: flavin binding site of complex I (IF) (Rattus norvegicus)
- Construct: freshly isolated muscle mitochondria were assayed; from tissue; host or cells: rat skeletal muscle mitochondria (Wistar, Harlan Laboratories)
- Sequence (Q5XIH3 21-464 limits assumed, one chain of several): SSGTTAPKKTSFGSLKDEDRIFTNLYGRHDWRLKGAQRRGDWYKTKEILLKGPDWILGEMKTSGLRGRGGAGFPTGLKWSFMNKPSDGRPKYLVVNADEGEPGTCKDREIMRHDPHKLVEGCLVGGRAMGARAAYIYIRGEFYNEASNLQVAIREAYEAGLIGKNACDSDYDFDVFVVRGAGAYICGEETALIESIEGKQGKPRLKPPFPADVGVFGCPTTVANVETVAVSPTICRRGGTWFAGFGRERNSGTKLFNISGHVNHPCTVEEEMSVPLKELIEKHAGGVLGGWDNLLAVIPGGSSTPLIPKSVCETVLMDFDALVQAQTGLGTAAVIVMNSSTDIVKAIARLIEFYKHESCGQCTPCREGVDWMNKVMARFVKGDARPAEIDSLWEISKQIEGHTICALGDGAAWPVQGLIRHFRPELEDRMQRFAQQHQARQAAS
- assay: High-throughput screen: ROS production from flavin binding site of complex I (IF)
- Format: biochemical
- condition description: Table 7; percent change in ROS from DMSO controls; read-out: IF
Could you please report measured inhibition at 2.5 µM for the items listed next?
Units required after the number.

# query: inhibition at 2.5 µM | item O=C(Nc1ccc(-c2nc3ccccc3[nH]2)cc1)c1ccco1 [Compound 63] | system: flavin binding site of complex I (IF) (Rattus norvegicus) -0.9%

# query: inhibition at 2.5 µM | item CC1CC(C)(C)N(C=O)c2ccccc21 (stereo not drawn) [Compound 71] | system: flavin binding site of complex I (IF) (Rattus norvegicus) -7%

# query: inhibition at 2.5 µM | item O=C(O)CCC(=O)Nc1ccc(Cl)cc1 [Compound 58] | system: flavin binding site of complex I (IF) (Rattus norvegicus) -0.1%

# query: inhibition at 2.5 µM | item COC(=O)c1ccc(CN(CCc2ccccc2)Cc2ccccc2)cc1 [Compound 43] | system: flavin binding site of complex I (IF) (Rattus norvegicus) 4.4%

# query: inhibition at 2.5 µM | item CC(=O)Nc1ccc(-c2nc3ccccc3[nH]2)cc1 [Compound 59] | system: flavin binding site of complex I (IF) (Rattus norvegicus) 3%

# query: inhibition at 2.5 µM | item O=C(O)CCC(=O)Nc1ccc(-c2nc3cc(C(=O)c4ccccc4)ccc3[nH]2)cc1 [Compound 69] | system: flavin binding site of complex I (IF) (Rattus norvegicus) 1.8%

# query: inhibition at 2.5 µM | item C=C(C)CN(CC)Cc1cc([N+](=O)[O-])ccc1Cl [Compound 45] | system: flavin binding site of complex I (IF) (Rattus norvegicus) -0.5%

# query: inhibition at 2.5 µM | item COc1ccc(NS(=O)(=O)c2cccc(C(=O)Nc3ccc(C)cc3)c2)cc1 [Compound 11] | system: flavin binding site of complex I (IF) (Rattus norvegicus) -3.3%

# query: inhibition at 2.5 µM | item Cc1ccc(CCSc2ccc(F)cc2)cn1 [Compound 35] | system: flavin binding site of complex I (IF) (Rattus norvegicus) 0.7%

# query: inhibition at 2.5 µM | item O=C(O)CCC(=O)Nc1ccc(-c2nc3ccccc3o2)cc1 [Compound 50] | system: flavin binding site of complex I (IF) (Rattus norvegicus) 2.6%

# query: inhibition at 2.5 µM | item CC(=O)Nc1ccc(S(=O)(=O)Nc2cccc(C)c2)cc1 [Compound 10] | system: flavin binding site of complex I (IF) (Rattus norvegicus) -3.3%

# query: inhibition at 2.5 µM | item Oc1nnc(Cc2ccncc2)c2ccccc12 [Compound 72] | system: flavin binding site of complex I (IF) (Rattus norvegicus) -2.6%

# query: inhibition at 2.5 µM | item O=C(O)CCC(=O)Nc1ccc(-c2nc3cc(NC(=O)CCC(=O)O)ccc3[nH]2)cc1 [Compound 57] | system: flavin binding site of complex I (IF) (Rattus norvegicus) -1.7%

# query: inhibition at 2.5 µM | item O=C(O)CSc1cccc(C(=O)Nc2ccc(Br)cc2)c1 [Compound 47] | system: flavin binding site of complex I (IF) (Rattus norvegicus) 0.5%

# query: inhibition at 2.5 µM | item COC(=O)CCC(=O)Nc1ccc(C)cc1 [Compound 53] | system: flavin binding site of complex I (IF) (Rattus norvegicus) -1.3%

# query: inhibition at 2.5 µM | item O=C(O)C1CCCCC1C(=O)NC1CCCCC1 (stereo not drawn) [Compound 19] | system: flavin binding site of complex I (IF) (Rattus norvegicus) 25.6%

# query: inhibition at 2.5 µM | item COc1ccc(Cl)cc1N(Cc1ccccc1)Cc1ccccc1 [Compound 34] | system: flavin binding site of complex I (IF) (Rattus norvegicus) -5.6%

# query: inhibition at 2.5 µM | item CN(C)CCCN(CCCN(C)C)Cc1cccnc1 [Compound 33] | system: flavin binding site of complex I (IF) (Rattus norvegicus) 3%

# query: inhibition at 2.5 µM | item COc1cccc(CCNC2C3CC4CC(C3)CC2C4)c1 (stereo not drawn) [Compound 26] | system: flavin binding site of complex I (IF) (Rattus norvegicus) 19.6%

# query: inhibition at 2.5 µM | item CCCCCCNC(=O)CCC(=O)O [Compound 54] | system: flavin binding site of complex I (IF) (Rattus norvegicus) -8%

# query: inhibition at 2.5 µM | item CC(C)(C)NS(=O)(=O)c1ccc2c(c1)C(=O)c1ccccc1C2=O [Compound 1] | system: flavin binding site of complex I (IF) (Rattus norvegicus) -10%

* * *

Could you please report measured inhibition at 2.5 µM for the items listed next?
- target of assay: outer ubiquinone binding site of complex III (IIIQO) (Rattus norvegicus, UniProt P00159+P20788)
- Construct: freshly isolated muscle mitochondria were assayed; from tissue; host or cells: rat skeletal muscle mitochondria (Wistar, Harlan Laboratories)
- assay: High-throughput screen: ROS production from outer ubiquinone binding site of complex III (IIIQO)
- Type: biochemical
- condition description: Table 8; percent change in ROS from DMSO controls; read-out: IIIQO
Kindly answer with a numeric value in %, unit omitted.

Which value of inhibition at 2.5 µM has been reported for c1ccc(C2CCC(Nc3ccc4c(c3)OCO4)CC2)cc1 (stereo not shown) in the records? 15

Which value of inhibition at 2.5 µM has been reported for CCC1CCCCN1C/C=C/c1ccc(N(C)C)cc1 (stereo not shown) in the records? 12

Which value of inhibition at 2.5 µM has been reported for Clc1ccc(C(NC2CCN(Cc3ccccc3)CC2)c2ccccc2)cc1 (stereo not shown) in the records? 30

Which value of inhibition at 2.5 µM has been reported for O=C(Nc1nn[nH]n1)C1CCCCC1 in the records? 0

Which value of inhibition at 2.5 µM has been reported for COc1ccc(NC(=S)NC(=O)c2ccco2)cc1 in the records? -3

Which value of inhibition at 2.5 µM has been reported for CN(C)c1ccc(C(=C2CN3CCC2CC3)c2ccc(N(C)C)cc2)cc1 in the records? 0

Which value of inhibition at 2.5 µM has been reported for Clc1ccc(N2CCN(CC(c3ccccc3)c3ccccc3)CC2)cc1 in the records? 29
